- Experimental system: CRBN protein (Homo sapiens, UniProt Q96SW2)
- Measurement description: Binding activity to E3 ubiquitin ligase CRBN (HTRF competitive binding kit, Thalidomide-Red)
- Test conditions: competition with XL665-labeled thalidomide for GST-tagged CRBN protein, HTRF, 3 hours at room temperature
Property name: IC50 (µM)
# number only, unit µM dropped from output

Entry "COc1c(C(=O)N[C@H]2CCC(=O)NC2=O)ccc2c1OCC21CCNCC1" : reported IC50 = ?
24.6

Recorded IC50 for O=C1CCC(Nc2ccc3c(c2)CCC2(CCNCC2)O3)C(=O)N1 (centres unmarked) , please?
5.53

Query (compound): "COc1cc2c(cc1C(=O)N[C@H]1CCC(=O)NC1=O)CCC1(CCNCC1)O2" ; field requested: IC50
14.4

What IC50 value was documented for this compound, O=C1CCC(Nc2ccc3c(c2)OC2(CCNCC2)CC3)C(=O)N1 (centres unmarked) ?
10.1

Given the entry "CN(C(=O)c1ccc2c(c1)OC[C@H]1CNCCN21)[C@H]1CCC(=O)NC1=O" , report its measured IC50.
5.32
